target.system: Receptor tyrosine-protein kinase erbB-2 (Homo sapiens)
test.method.notes: reducers of endogenous Her2 protein level, primary screen, SKBR3 breast tumor cells, AlphaScreen, ATP viability (AID 461);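 note: lower value means less Her2 protein in the cells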
condition: 18-24 h, at 10 µM, stronger effect = lower value
Active and inactive are the calls of the source.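 Rule for the calls: active = Her2 level under about 52% in both replicate screens, with viability over 70% of control (limit read from the data); inconclusive = Her2 under the limit in one screen only, or viability under 70%; inactive = Her2 level above the set limit.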
readout.type: Her2 level

>>> data_value("CCCN1C2CCCC1CC(NC(=O)c1ccccc1F)C2 (configuration not stated)")
"96.5% (inactive)"
>>> data_value("O=C(NCc1cccnc1)C1c2ccccc2C(=O)N1Cc1ccco1 (configuration not stated)")
"91% (inactive)"
>>> data_value("CCn1c(=O)cc(SCC(=O)NCC2CCCO2)c2ccccc21 (configuration not stated)")
"87% (inactive)"
>>> data_value("Cn1c(SCc2nc3ccccc3c(=O)[nH]2)nnc1-c1ccco1")
"81% (inactive)"
>>> data_value("COC(=O)C1CCN(C(=O)NC(C)(C)C)CC1")
"83% (inactive)"
>>> data_value("CSc1nc(=NC(C)=O)ss1")
"88.5% (inactive)"

Request the reported Her2 level associated with `CCSCCNC(=O)c1cc(-n2cnnc2)ccc1Cl`
106% (inactive)

---

test.method.notes: reversal of MRP1-mediated doxorubicin resistance, pilot screen, H69AR cells, doxorubicin co-treatment (AID 601)
condition: H69AR cells + 2 uM doxorubicin, CellTiter-Glo, 72 h; at 10 µM; stronger effect = higher value
readout.type: differential viability (reversal) (%)
Numbers only, in %.

Consider the following illustrative entries.
>>> data_value("N#CC1=C(N)N(c2ccccc2)C2=C(C(=O)CCC2)C1c1cccs1 (stereo unspecified)")
46.8
>>> data_value("Cc1ccc(NC(=O)CCC(=O)OCC(F)(F)C(F)F)cc1")
-1.04
>>> data_value("COc1ccc(NC2c3ncccc3C(=O)N2Cc2ccccc2)c(OC)c1 (stereo unspecified)")
4.3
>>> data_value("CCOC(=O)C1=C(C)NC2=C(C(=O)CC(C)(C)C2)C1c1ccc(N(C)C)cc1 (stereo unspecified)")
-2.37
>>> data_value("COC(=O)C1=C(C)C(c2cccs2)NC(=O)N1C (stereo unspecified)")
10.1

Would you mind giving differential viability (reversal) for every compound in the list below?
1. CCn1c(=O)n(CC(=O)N(C)Cc2ccccc2)c(=O)c2ccccc21
2. O=C(Nc1ccncc1)c1cncc(Br)c1
3. Cc1ccc(S(=O)(=O)NCCNC(=O)c2ccccc2)cc1
4. COCCOC(=O)C1=C(N)OC2=C(C(=O)CC(C)(C)C2)C1c1cccnc1 (stereo unspecified)
5. O=C(Nc1ccc(-c2noc(-c3cccs3)n2)cc1)c1cccnc1
6. CC1CCN(CCn2c(=S)[nH]c3ncccc3c2=O)CC1

1: 1.03; 2: 4.04; 3: 19.7; 4: 7.16; 5: -46.6; 6: 9.6

---

test.method.notes: SK-BR-3 cell growth inhibitors, pilot screen, 24 h, human (AID 572);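 note: compound exposure lasted between 18 and 24 h rather than exactly 24 h; 100% = carrier-treated control wells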
condition: SK-BR-3 viability, CellTiter-Glo luminescence, at 10 µM, stronger effect = lower value
readout.type: viability (%)
Answers are plain numbers, in %.

>>> data_value("CC(C)CN(C(=O)COC(=O)Cc1n[nH]c(=O)c2ccccc12)C1CCS(=O)(=O)C1 (stereo not given)")
97.5
>>> data_value("Cc1cc(C)n(CC2CC(=O)N(c3ccc(Cl)c(Cl)c3)C2=O)n1 (stereo not given)")
112
>>> data_value("CCOC(=O)N1CCC(NC(=O)CCN2C(=O)COc3ccccc32)CC1")
100
>>> data_value("CC1=C(C(=O)OCc2ccccc2)C(c2ccc(C)o2)C2=C(CCCC2=O)N1 (stereo not given)")
72
>>> data_value("COc1cccc(N2CCN(Cc3nc(N)nc(Nc4ccccc4OC)n3)CC2)c1")
124

Would you mind giving viability for every compound in the list below?
1. COc1ccccc1NC(=O)C1=C(C)Nc2nnnn2C1c1ccccc1OC (stereo not given)
2. O=C(CCN1C(=O)C2C3C=CC(C3)C2C1=O)NCCc1ccccc1Cl (stereo not given)
3. COc1ccccc1-c1nnc(SCc2ccccn2)n1C

[94, 95, 94]

---

Field: differential viability (reversal). Provide a value for each of the molecules that follow.
test.method.notes: reversal of MRP1-mediated doxorubicin resistance, pilot screen, H69AR cells, doxorubicin co-treatment (AID 601)
condition: H69AR cells + 2 uM doxorubicin, CellTiter-Glo, 72 h; at 10 µM; stronger effect = higher value
Give bare numbers, in %.

Consider the following illustrative entries.
>>> data_value("Cc1cc(-c2ccc(F)cc2)nc2cc(C(N)=O)nn12")
-1.99
>>> data_value("COc1ccc(S(=O)(=O)Nc2ccc(F)c(F)c2)cc1Cl")
-2.64
>>> data_value("O=C(/C=N/O)NCc1ccncc1")
7.88
>>> data_value("COc1ccc(N2CCN(c3ccc(N)cc3C#N)CC2)cc1")
2.29
>>> data_value("Cc1cc(C(=O)O)ccc1-n1c(C)ccc1C")
1.35

Lab note: next molecule to report on.
Request the reported differential viability (reversal) associated with `Cc1ccccc1N1C(N)=NC(N)=NC1(C)C`
-0.97

---

target.system: Receptor tyrosine-protein kinase erbB-2 (Homo sapiens) (UniProt P04626)
Sequence (P04626 whole entry, looked up): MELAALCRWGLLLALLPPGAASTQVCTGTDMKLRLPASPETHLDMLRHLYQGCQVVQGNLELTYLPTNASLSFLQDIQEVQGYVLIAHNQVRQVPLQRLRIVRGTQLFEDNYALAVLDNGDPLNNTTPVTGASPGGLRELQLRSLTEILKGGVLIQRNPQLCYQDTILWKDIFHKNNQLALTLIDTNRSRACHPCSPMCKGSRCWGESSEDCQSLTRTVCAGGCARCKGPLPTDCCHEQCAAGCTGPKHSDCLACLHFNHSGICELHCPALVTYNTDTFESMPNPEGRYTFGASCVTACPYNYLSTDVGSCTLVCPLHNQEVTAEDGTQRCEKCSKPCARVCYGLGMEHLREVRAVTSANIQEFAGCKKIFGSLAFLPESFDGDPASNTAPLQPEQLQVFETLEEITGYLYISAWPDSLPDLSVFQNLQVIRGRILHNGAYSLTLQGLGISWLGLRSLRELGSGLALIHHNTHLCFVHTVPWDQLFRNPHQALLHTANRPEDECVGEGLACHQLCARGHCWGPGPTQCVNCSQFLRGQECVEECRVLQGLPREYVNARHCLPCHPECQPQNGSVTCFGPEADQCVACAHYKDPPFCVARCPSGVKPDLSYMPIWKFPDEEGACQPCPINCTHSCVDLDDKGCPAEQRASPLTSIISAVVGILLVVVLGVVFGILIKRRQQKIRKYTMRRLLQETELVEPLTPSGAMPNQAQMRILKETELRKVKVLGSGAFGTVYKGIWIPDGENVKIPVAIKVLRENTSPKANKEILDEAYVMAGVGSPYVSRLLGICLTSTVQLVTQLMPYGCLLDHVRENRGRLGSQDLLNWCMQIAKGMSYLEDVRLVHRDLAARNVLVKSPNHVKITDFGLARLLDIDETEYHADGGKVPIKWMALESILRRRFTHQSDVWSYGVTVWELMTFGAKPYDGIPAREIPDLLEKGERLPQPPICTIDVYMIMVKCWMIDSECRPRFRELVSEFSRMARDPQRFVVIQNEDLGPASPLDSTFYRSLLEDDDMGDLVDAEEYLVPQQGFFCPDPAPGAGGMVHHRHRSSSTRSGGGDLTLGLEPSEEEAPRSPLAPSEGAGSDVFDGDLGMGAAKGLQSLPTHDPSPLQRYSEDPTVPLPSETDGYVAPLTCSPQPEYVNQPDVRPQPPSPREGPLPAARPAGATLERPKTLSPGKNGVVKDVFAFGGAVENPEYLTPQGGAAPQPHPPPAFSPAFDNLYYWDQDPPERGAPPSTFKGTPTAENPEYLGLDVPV
test.method.notes: reducers of endogenous Her2 protein level, primary screen, SKBR3 breast tumor cells, AlphaScreen, ATP viability (AID 461);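 note: lower value means less Her2 protein in the cells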
condition: 18-24 h, at 10 µM, stronger effect = lower value
Field: Her2 level. Provide a value for each of the compounds that follow.
Numbers only, in %.

Consider the following illustrative entries.
>>> data_value("CC(C)CC(c1nnnn1C1CCCC1)N1CCN(c2ccccc2F)CC1 (centres undefined)")
94
>>> data_value("Cc1cc(C)n(CC(=O)n2c3c(c4ccccc42)CCCC3)n1")
117
>>> data_value("Cn1c(=O)c2c(-c3ccccc3)n(CCCN3CCOCC3)cc2n(C)c1=O")
98.5
>>> data_value("Cc1oc(-c2ccccc2)cc1C(N)=O")
78.5
>>> data_value("CC(CN1CCN(C)CC1)OC(=O)c1ccc(Cl)cc1Cl (centres undefined)")
90.5
>>> data_value("Cn1nc(C(=O)N2CCOCC2)c2ccccc2c1=O")
114

Would you mind giving Her2 level for every compound in the list below?
1. COc1cc2c(cc1OC)C(c1cc(OC)c(OC)c(OC)c1)NCC2 (centres undefined)
2. O=C1CC(N2CCC(C(=O)N3CCCCC3)CC2)C(=O)N1 (centres undefined)
3. CCCOc1ccc(OCCSc2ncccn2)cc1

[81, 91.5, 91]

---

test.method.notes: 384-well plate pilot, post-Golgi transport modulator project, inhibition of yeast transport mutant growth (AID 636)
condition: absorbance 615 nm, about 18 h, stronger effect = higher value
Field: inhibition. Provide a value for each of the compounds that follow.
Numbers only, in %.

Would you mind giving inhibition for every compound in the list below?
1. CCSc1nnc(NC(=O)CCNS(=O)(=O)c2cc(Br)cnc2N)s1
2. CCOC(=O)N1CCC(N2C(=O)c3ccccc3C2Nc2ccc3c(C)cc(=O)oc3c2)CC1 (stereo not drawn)
3. CCOC(=O)N1CCN(C(=O)CN(c2ccc(C)cc2)S(=O)(=O)c2c(C)noc2C)CC1

[-1.04, -1.79, -4.73]

---

test.method.notes: reversal of MRP1-mediated doxorubicin resistance, pilot screen, H69AR cells, doxorubicin co-treatment (AID 601)
condition: H69AR cells, CellTiter-Glo, 72 h; compound alone cytotoxicity; at 10 µM
readout.type: viability (%)
Numbers only, in %.

Consider the following illustrative entries.
>>> data_value("CC1(C)Cc2c(sc3ncnc(N)c23)CO1")
95.6
>>> data_value("CC(=Nc1ccc(C)c(C)c1)C1=C(O)CCC1=O")
94.7
>>> data_value("O=C(COC(=O)CCc1c[nH]c2ccccc12)NC1CCS(=O)(=O)C1 (configuration not stated)")
90.1
>>> data_value("Cn1cc(Br)c(C(=O)NC2CCCCC2)n1")
94.3

Would you mind giving viability for every molecule in the list below?
1. COc1cccc2cc(C(=O)N3CCN(C45CC6CC(CC(C6)C4)C5)CC3)c(=O)oc12
2. Cc1ccc2c(CNCc3ccco3)cc(=O)oc2c1
3. CCn1c(=N)n(CC(O)c2ccco2)c2ccccc21 (configuration not stated)
4. CCc1ccc(NC(=O)C2CC(=O)N(C(C)C)C2)cc1 (configuration not stated)
5. N#Cc1cc2sc3nnc(-c4ccncc4)n3c2cc1C#N
6. COc1ccccc1Nc1ncnc2c1cnn2-c1cccc(C)c1

[107, 93.5, 90.4, 90.8, 32.3, 95.4]

Would you mind giving viability for every molecule in the list below?
1. Cc1cc(C)c(C#N)c(SCc2[nH]nc3c2C(c2ccccc2)C(C#N)=C(N)O3)n1 (configuration not stated)
2. C/C(N)=C(/C#N)C(=O)COC(=O)c1cc(C)n(-c2ccc(F)cc2)c1C
3. O=C(OCc1nnc(-c2ccc(Cl)cc2)o1)c1ccc(=O)n(Cc2ccccc2)n1
4. O=C1COc2ccc(C(=O)NCc3ccco3)cc2N1
5. Cc1ccc(S(=O)(=O)NCC(=O)N(CC(=O)NCc2ccccc2)CC2CCCO2)cc1 (configuration not stated)
6. COc1ccc(Cl)cc1NC(=O)c1oc(C)nc1C

99.7
98.1
95.1
104
104
90.1

Would you mind giving viability for every molecule in the list below?
1. Cc1ccccc1-c1nc(CS(=O)(=O)CC(=O)NCc2ccc3c(c2)OCO3)c(C)o1
2. N#CCc1c(C#N)c(N)nc(N2CCN(S(=O)(=O)c3ccccc3)CC2)c1C#N
3. CCC(C)N=C1SCC(C)(/C=N/O)S1 (configuration not stated)
4. CCOC(=O)N1CCN(S(=O)(=O)c2ccc(F)c(C(=O)Nc3cc(C)cc(C)c3)c2)CC1
5. COCCNC(=O)CN(C)S(=O)(=O)c1ccc2c(c1)OCCO2
6. CCOC(=O)c1c(-c2cccs2)csc1NC(=O)CCCC(=O)O
7. CCC(CO)Nc1ncnc2c1cnn2-c1ccc(Cl)cc1 (configuration not stated)
8. Nc1sccc1C(=O)c1ccc(Cl)cc1

1. 87.8
2. 77.6
3. 104
4. 83.3
5. 100
6. 83.4
7. 93.7
8. 90.2

Would you mind giving viability for every molecule in the list below?
1. O=C(O)CCc1ccc(-c2cccs2)o1
2. CCCC(=O)N(Cc1cc2ccccc2[nH]c1=O)c1ccccc1OC
3. Cc1cc(C)c(C)c(OCC(=O)NCC2CCCO2)c1 (configuration not stated)
4. CCN(CCCNC(=O)C1CCN(S(=O)(=O)c2cccc3nonc23)CC1)Cc1ccccc1
5. O=C(CCN1CCN(c2ccc(F)cc2)CC1)Nc1ccccc1F
6. CN(C1CCCCC1)S(=O)(=O)c1ccc(NC(=O)c2ccco2)cc1
7. Cn1cnc2c(N3CCCCC3)nccc21
8. COc1ccc2nc(NC(=O)c3ccoc3C)sc2c1

1. 95.9
2. 105
3. 100
4. 92.9
5. 86
6. 99.3
7. 90.5
8. 26.1
